The binders listed here are annotated with their MFI ratio over secondary antibody.
Target: T1, human CD98hc endogenously expressed on HCMEC/D3 cells (human)
T1 construct: human brain endothelial cell line
T1 chain: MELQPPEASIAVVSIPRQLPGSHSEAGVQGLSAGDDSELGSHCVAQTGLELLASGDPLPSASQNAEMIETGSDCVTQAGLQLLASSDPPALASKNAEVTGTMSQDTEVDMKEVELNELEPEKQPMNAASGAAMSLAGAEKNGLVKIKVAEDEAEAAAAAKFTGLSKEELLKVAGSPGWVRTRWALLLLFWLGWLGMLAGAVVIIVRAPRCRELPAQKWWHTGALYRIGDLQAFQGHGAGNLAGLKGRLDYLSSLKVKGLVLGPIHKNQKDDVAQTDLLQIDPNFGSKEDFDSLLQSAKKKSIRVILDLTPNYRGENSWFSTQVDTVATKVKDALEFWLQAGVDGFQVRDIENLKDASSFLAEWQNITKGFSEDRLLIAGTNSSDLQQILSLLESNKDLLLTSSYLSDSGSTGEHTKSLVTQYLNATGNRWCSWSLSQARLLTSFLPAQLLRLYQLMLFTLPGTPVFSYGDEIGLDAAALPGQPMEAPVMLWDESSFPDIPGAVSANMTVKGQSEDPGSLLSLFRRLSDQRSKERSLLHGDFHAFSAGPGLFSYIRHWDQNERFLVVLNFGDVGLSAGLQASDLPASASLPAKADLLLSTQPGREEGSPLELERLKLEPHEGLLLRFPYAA
Assay: FACS, hybridoma supernatant
Please reply with the number alone, leaving off any unit.

CD98HC.04.063 (antibody, V domains shown, hybridoma IgG) VH: EVKLEESGGGLVQPGGSMILSCVASGFTFSNSWMNWVRQSPEKGLEWVAEIRLRSNNYATHYAESVKGRFTISRDDSKSTVYLQMNNLRAEDTGIYYCSRGDPGAYWGQGTLVTVSA VL: DIQMTQSSSYLSVSLGNRVTITCKASDHIKNWLAWFQQKPGNAPRLLISGATILETGVPSRFSGSGSGKDYTLSITSLQTEDVATYYCQQYWSTPYTFGGGTKLEIK | 124
CD98HC.04.058 (antibody, V domains shown, hybridoma IgG) VH: QVQLQQSGAELVRPGVSVKISCKASGYTFTDHTMHWVKQSHARSLEWIGVISTYFGDASYNPKFKGKATMTVDKSSNTAYMELARLTSEDSAIYYCARVGGRLRLGYYFDYWGQGTTLTVSS VL: NIMMTQSPSSLAVSAGEKVTMNCKSSQTVLYSSNQKNYLAWYQQKPGQSPKLLIYWASTRESGVPDRFTGSGSGTDFTLTISSVQVEDLAVYYCHQYLSSYTFGGGTKLEIK | 158

Next item in the queue.
Prompt line: // query MFI ratio over secondary antibody value for entry CD98HC.04.003 (antibody, V domains shown, hybridoma IgG) VH: QVQLQQSGAELAKPGASLKMSCKASGYTFTDYYIHWVKQRPGQDLEWIGYINPNSAYTDSNQKFKDKATLTADKSSNTAYMQLSSLTSEDSAVYYCARKGHFYAPSFAYWGQGTLVTVSA VL: DIQMTQTTSSLSASLGDRVTISCRASQDISNYLNWYQQKPDGTVKLLIYYTSRLHSGVPSRFSGSGSGADYSLTISNLQQEDIATYFCQQGDTLPYTFGGGTKLEIE
Response line: 13.8

Data credit: patent US20250270341A1
